Numbers sourced from PubChem BioAssay (NCI).

Tested on: UO-31 renal
ASSAY_EXPLANATION: NCI tumour cell line growth inhibition, 48 h
TEST_READOUT: GI50

MOLECULE | TEST_SYSTEM | GI50
O=C(N/N=C/c1c(Cl)cccc1Cl)c1ccc(C(F)(F)F)nc1Nc1cccc(C(F)(F)F)c1 | UO-31 renal | 1.49 µM
CCOc1ccccc1NC(=O)C(C#N)C1=C(Cl)C(=O)c2ccccc2C1=O (stereo not drawn) | UO-31 renal | 1.51 µM

Query: Please report the recorded GI50 for C[C@H]1CCC/C=C/[C@@H]2C[C@H](O)C[C@H]2[C@H](O)[C@@H](SCC(O)CO)CC(=O)O1 (stereo partly drawn) .
Response: 21.4 µM

----------
Test system: ACHN renal
ASSAY_EXPLANATION: NCI tumour cell line growth inhibition, 48 h; in the data active = GI50 below about 0.43 µM; inactive = the rest
Pick one: active, inactive

For orientation, consider the following solved cases.
COMPOUND | TEST_SYSTEM | CAT
C=C1CC[C@@H](C(C)C)C[C@@H]2[C@H]([C@H](O)C[C@]2(C)O)[C@@]2(C)CC[C@@H]1O2 | ACHN renal | inactive
Cn1c(=O)c2c(ncn2CC(=O)Nc2ccc(-c3ccccc3)nn2)n(C)c1=O | ACHN renal | inactive
CN1CCN(c2ccc(Nc3ncc4cc(C#N)c(=O)n(C5CCCC5)c4n3)cc2)CC1 | ACHN renal | active
Cn1cc(-c2ccc(-c3cncc(Cl)c3N3CCC4(CCNC4=O)CC3)cc2)cn1 | ACHN renal | inactive

Query: Please indicate how the test categorized O=c1oc2ccc(Br)cc2c(=O)n1-c1ccc(F)cc1F .
Response: inactive

Query: Please indicate how the test categorized O=C1CSC(c2ccc(-c3nc4ccccc4s3)cc2)=N1 .
Response: inactive

Query: Please indicate how the test categorized NC(=S)N/N=C/c1cc(-c2cccc(N)c2)ccn1 .
Response: inactive

----------
Tested on: HCT-15 colon
ASSAY_EXPLANATION: NCI tumour cell line growth inhibition, 48 h
Where a SMILES comes first, the peptide text is derived from it. The star is where a group is joined. Bn = c1ccc(C*)cc1
Recorded TGI values for a group of compounds are listed next.

Examples with answers:
COMPOUND | TGI
[F][Sn]([F])([c]1ccccc1)[c]1ccccc1 | 3.26 µM
COP(=O)(OC)C12CCOCCN1c1ccccc1C2=O (stereo not given) | > 100 µM
O=C(Nc1ccc(-n2cc(-c3ccncc3)c(-c3ccc(O)c(Cl)c3)n2)cc1)Nc1cccc(Cl)c1Cl | > 32.5 µM
CC1(C)OC2CC(=O)OCC23C1CC(=O)C1(C)C3CCC2(C)C(c3ccoc3)OC(=O)C3OC321 (stereo not given) | > 125 µM
CCOC(CN(C)C(=S)Nc1cccc2ccccc12)OCC | > 10 µM
Cc1ccc(-c2c(C#N)c(-c3ccc([N+](=O)[O-])cc3)c(C#N)c(=O)n2NS(=O)(=O)c2ccccc2)cc1 | > 100 µM

Query: Entry Cc1cn2c(C)csc2c1P(=O)(OC(C)C)OC(C)C , system HCT-15 colon: what TGI was measured?
Response: > 100 µM

Query: Entry Nc1nc(N)c2cc(CNc3ccc(C(=O)NC(CC(=O)O)C(=O)O)c(Cl)c3)ccc2n1 (stereo not given) , system HCT-15 colon: what TGI was measured?
Response: > 500 µM

Query: Entry Nc1ccccc1SC1CC(=O)N(c2ccc(Cl)c(Cl)c2)C1=O (stereo not given) , system HCT-15 colon: what TGI was measured?
Response: > 100 µM

Query: Entry COC(=O)C(CC(C)C)NC(=O)C(N)Cc1ccc(OCc2ccccc2)cc1 (stereo not given) (H-Tyr(Bn)-Leu-OMe; configuration not given here) , system HCT-15 colon: what TGI was measured?
Response: > 10 µM

Query: Entry COC(=O)C1=C(C)NC(C)=C([N+](=O)[O-])C1c1cccc(N=O)c1 (stereo not given) , system HCT-15 colon: what TGI was measured?
Response: 29.1 µM

Query: Entry C[C@]12CC[C@@H]3c4ccc(O)c([N+](=O)[O-])c4CC[C@H]3[C@@H]1CC[C@@H]2NS(=O)(=O)c1cccc(Br)c1 , system HCT-15 colon: what TGI was measured?
Response: 3.09 µM

----------
System: KM12 colon
ASSAY_EXPLANATION: NCI tumour cell line growth inhibition, 48 h
TEST_READOUT: TGI

MOLECULE | TEST_READOUT | READING
CC1=CC(=O)C(C(O)(C(F)(F)F)C(F)(F)F)C(C)(C)C1 (stereo not drawn) | TGI | > 10 µM
COc1cc2c(cc1OC)C13CC[N+]4(C)CC5=CCOC6CC(=O)N2C1C6C5CC34[O-] (stereo not drawn) | TGI | > 100 µM

As a next step, examine the molecule that follows.
Query: Please report the recorded TGI for O=C(O)c1ccc2c(c1)CC1(C2)Cc2cc3c(cc2C1=O)CCC3 (stereo not drawn) .
Response: > 100 µM

----------
Test system: HOP-92 NSCLC
ASSAY_EXPLANATION: NCI tumour cell line growth inhibition, 48 h
TEST_READOUT: TGI

COMPOUND | TEST_READOUT | READING
Cc1ccc(Nc2nnc(-c3ccc4c(c3)OCO4)o2)c(C)c1 | TGI | > 100 µM
O=C1CCCc2cc3c(cc21)CC1(C3)Cc2ccc3c(c2C1)C(=O)CCC3 (stereo not drawn) | TGI | > 100 µM
CC1=CC(=O)CC2(C)CCC(C(C)CC(=O)CC(C)C)CC12 (stereo not drawn) | TGI | > 100 µM
O=C(O)c1c2c(cc3c1CC1(Cc4ccccc4C1=O)C3)CCC2 (stereo not drawn) | TGI | > 91.6 µM
CC1=C(C(=O)Nc2ccccc2)C(c2ccc(C3C(C(=O)Nc4ccccc4)=C(C)NC(C)=C3C(=O)Nc3ccccc3)cc2)C(C(=O)Nc2ccccc2)=C(C)N1 | TGI | 9.78 µM

Query: Please report the recorded TGI for COc1ccccc1N1CCN(CCCNC(=O)c2cc(Cl)c(N)c(Cl)c2)CC1 .
Response: 31.4 µM

Query: Please report the recorded TGI for CC1(C)[C@@H](Cn2cnc3c(Cl)nc(N)nc32)CC[C@@]1(C)CO .
Response: > 100 µM

Query: Please report the recorded TGI for [F][Sn]([F])([c]1ccccc1)[c]1ccccc1 .
Response: 3.13 µM

----------
Test system: OVCAR-8 ovarian
ASSAY_EXPLANATION: NCI tumour cell line growth inhibition, 48 h
TEST_READOUT: TGI

Examples with answers:
SMILES_TEXT | TGI
O/C(=C\c1nc2ccccc2nc1NC12CC3CC(CC(C3)C1)C2)c1ccc(Br)cc1 | > 10 µM
O=c1nc(-c2ccccc2)cc(-c2ccccc2O)[nH]1 | > 100 µM
Cc1cc(C)n(-c2nnc3n2N=C(c2ccc(-c4ccccc4)cc2)CS3)n1 | > 100 µM

As a next step, examine the compound that follows.
Query: Please report the recorded TGI for CCN(CC)CCNC(=O)c1ccc(C)c(OCc2ccccc2)c1[N+](=O)[O-] .
Response: > 100 µM

----------
Tested on: MALME-3M melanoma
ASSAY_EXPLANATION: NCI tumour cell line growth inhibition, 48 h
TEST_READOUT: TGI

Examples with answers:
COMPOUND | TGI
COC(=O)c1cc2c(cc1CC(Cc1ccc3c(c1)CCC3)C(=O)OC)CCC2 (stereo unspecified) | > 100 µM
NC(=O)c1ncn2c1NC(=O)CC2 | > 100 µM
Nc1ccc2[nH]cc(CCC(=O)O)c2c1 | > 100 µM
O=C(Nc1ccc(-n2cc(-c3ccncc3)c(-c3ccc(O)c(Cl)c3)n2)cc1)Nc1cccc(Cl)c1Cl | > 32.5 µM
OCC(O)CNc1ccnc2cc(Cl)ccc12 (stereo unspecified) | > 100 µM

Query: Please report the recorded TGI for CN1COCc2cc3cc4c(cc3nc21)OCCO4 .
Response: > 100 µM

----------
Test system: PC-3 prostate
ASSAY_EXPLANATION: NCI tumour cell line growth inhibition, 48 h
TEST_READOUT: TGI

Examples with answers:
COMPOUND | TEST_SYSTEM | TEST_READOUT | READING
Cn1cc(-c2ccc(-c3cncc(Cl)c3N3CCC4(CCNC4=O)CC3)cc2)cn1 | PC-3 prostate | TGI | > 100 µM
O=C(CCc1cccc(O)c1)NCCCNC(=O)CCc1cccc(O)c1 | PC-3 prostate | TGI | > 100 µM
COc1cc(OCc2ccc3nc(OC)c(OC)nc3c2)cc(OC)c1OC | PC-3 prostate | TGI | > 4.95 µM
NS(=O)(=O)c1ccc(NC(NC(=O)C(C(F)(F)F)C(F)(F)F)(C(F)(F)F)C(F)(F)F)cc1 | PC-3 prostate | TGI | > 100 µM
O/C(=C\c1nc2ccccc2nc1NC12CC3CC(CC(C3)C1)C2)c1ccc(Br)cc1 | PC-3 prostate | TGI | > 10 µM

As a next step, examine the compound that follows.
Query: Please report the recorded TGI for COC(=O)C1(Cc2ccc3c(c2)CCC3)Cc2ccccc2C1=O (stereo unspecified) .
Response: > 100 µM
